We begin with a simple list: items and their reported log Ratio App Aff.
- target system: rNav1.2 sodium channels (Rattus norvegicus)
- Construct: host or cells: HEK-293
- Sequence (P04775 whole entry): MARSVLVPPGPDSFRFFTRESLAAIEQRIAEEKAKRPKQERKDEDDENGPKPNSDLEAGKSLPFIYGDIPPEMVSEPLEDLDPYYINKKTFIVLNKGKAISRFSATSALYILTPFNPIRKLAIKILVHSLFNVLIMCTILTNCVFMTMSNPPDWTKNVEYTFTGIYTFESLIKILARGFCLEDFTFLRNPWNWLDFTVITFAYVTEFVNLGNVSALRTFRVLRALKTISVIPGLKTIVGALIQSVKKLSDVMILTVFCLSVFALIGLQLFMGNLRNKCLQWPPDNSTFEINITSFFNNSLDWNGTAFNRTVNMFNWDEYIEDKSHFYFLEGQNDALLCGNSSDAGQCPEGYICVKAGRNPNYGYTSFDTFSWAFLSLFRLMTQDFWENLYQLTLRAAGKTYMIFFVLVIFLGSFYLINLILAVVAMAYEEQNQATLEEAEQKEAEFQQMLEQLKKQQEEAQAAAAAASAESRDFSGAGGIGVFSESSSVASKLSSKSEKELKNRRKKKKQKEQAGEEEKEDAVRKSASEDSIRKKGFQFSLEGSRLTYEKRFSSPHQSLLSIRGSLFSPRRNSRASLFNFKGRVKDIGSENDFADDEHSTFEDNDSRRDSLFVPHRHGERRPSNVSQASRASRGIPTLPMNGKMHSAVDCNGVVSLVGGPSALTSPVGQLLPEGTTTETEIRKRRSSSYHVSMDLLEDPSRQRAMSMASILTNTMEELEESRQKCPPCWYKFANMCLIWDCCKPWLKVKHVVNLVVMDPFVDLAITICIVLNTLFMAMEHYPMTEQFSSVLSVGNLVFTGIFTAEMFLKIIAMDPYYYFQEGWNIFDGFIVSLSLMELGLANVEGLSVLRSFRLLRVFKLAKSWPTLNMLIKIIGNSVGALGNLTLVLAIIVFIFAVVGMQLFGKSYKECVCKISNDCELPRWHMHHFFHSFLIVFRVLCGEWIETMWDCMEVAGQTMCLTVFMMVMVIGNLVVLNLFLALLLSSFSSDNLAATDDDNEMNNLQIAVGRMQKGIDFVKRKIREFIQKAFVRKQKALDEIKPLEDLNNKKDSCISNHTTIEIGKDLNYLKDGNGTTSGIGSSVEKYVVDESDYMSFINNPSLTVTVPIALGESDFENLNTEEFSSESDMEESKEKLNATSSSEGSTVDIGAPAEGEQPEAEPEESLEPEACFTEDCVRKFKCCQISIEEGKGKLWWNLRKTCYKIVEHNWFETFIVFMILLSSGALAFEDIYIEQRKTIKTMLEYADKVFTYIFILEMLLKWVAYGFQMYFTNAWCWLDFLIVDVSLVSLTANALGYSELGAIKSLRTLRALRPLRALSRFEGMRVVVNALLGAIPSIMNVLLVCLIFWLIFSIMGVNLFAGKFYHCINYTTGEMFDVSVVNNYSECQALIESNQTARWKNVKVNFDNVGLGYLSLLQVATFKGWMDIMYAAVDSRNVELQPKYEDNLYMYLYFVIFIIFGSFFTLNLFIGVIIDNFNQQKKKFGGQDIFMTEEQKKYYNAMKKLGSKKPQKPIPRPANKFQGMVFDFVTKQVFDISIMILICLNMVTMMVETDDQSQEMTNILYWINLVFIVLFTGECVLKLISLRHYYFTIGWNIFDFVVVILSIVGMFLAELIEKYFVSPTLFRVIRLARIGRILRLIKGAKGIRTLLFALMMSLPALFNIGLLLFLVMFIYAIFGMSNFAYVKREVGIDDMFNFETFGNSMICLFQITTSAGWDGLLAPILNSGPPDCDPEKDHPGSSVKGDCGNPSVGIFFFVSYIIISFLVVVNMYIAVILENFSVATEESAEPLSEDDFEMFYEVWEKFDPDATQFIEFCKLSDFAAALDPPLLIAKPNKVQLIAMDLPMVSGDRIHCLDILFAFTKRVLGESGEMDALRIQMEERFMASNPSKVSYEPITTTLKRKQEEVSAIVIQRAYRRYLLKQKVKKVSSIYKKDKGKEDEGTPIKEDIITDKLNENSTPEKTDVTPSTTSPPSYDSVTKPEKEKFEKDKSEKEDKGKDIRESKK
- measurement protocol: QPatch automated patch clamp, inhibition of sodium currents evoked by 5 Hz trains at three extracellular pH values
- Assay type: cell-based
- stated conditions: pH 6.0/7.3; cc 100 mM
Form: value (number only, do not type unit).

A selection of reference data follows.
[[record]]
molecule = "COc1ccccc1OCC(O)CN1CCN(CC(=O)Nc2c(C)cccc2C)CC1 (centres unmarked)"
measurement_label = "log Ratio App Aff"
numeric_readout = -0.038

[[record]]
molecule = "Cc1ccc(C(=O)C(C)CN2CCCCC2)cc1 (centres unmarked)"
measurement_label = "log Ratio App Aff"
numeric_readout = 0.132

[[record]]
molecule = "CN1CCN2c3ncccc3Cc3ccccc3C2C1 (centres unmarked)"
measurement_label = "log Ratio App Aff"
numeric_readout = 0.353

[[record]]
molecule = "CCCCN1CCCCC1C(=O)Nc1c(C)cccc1C (centres unmarked)"
measurement_label = "log Ratio App Aff"
numeric_readout = 0.218


Next, consider the following molecule.
Prompt: Recorded log Ratio App Aff for CC12CC3CC(C)(C1)CC(N)(C3)C2 [memantine] , please?
Completion: 0.109

Source of measurements: paper PMC4585259
